test system: 755483-174-R-J1-PDC complex spheroid growth, percent test/control; assay: Anticancer human tumor 755483-174-R-J1-PDC patient-derived rhabdomyosarcoma cell line growth inhibition [Asc]; conditions: second compound 0.1 µM; first compound 0.1 µM; stronger effect = lower value;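 further: spheroids exposed to compounds for seven days before readout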
READOUT_NAME: viability, T/C (%)

>>> data_value("O=C(c1cc(Cc2n[nH]c(=O)c3ccccc23)ccc1F)N1CCN(C(=O)C2CC2)CC1 + Cc1c(S(C)(=O)=O)c(-c2cc(F)cc(N3CCN(c4ccc(NS(=O)(=O)c5ccc(NC(CCN6CCC(C(=O)OCCCP(=O)(O)O)CC6)CSc6ccccc6)c(S(=O)(=O)C(F)(F)F)c5)cc4)CC3)c2)c(-c2ccc(Cl)cc2)n1C(C)C")
35.8
>>> data_value("C=C(F)C(=O)N1CCN(c2nc(OCC3CCCN3C)nc3c2CCN(c2cccc4cccc(Cl)c24)C3)CC1CC#N (stereo not drawn) + CNC(C)C(=O)NC1CN(S(=O)(=O)c2cccc(S(=O)(=O)N3CCC4CCC(C(=O)NC(c5ccccc5)c5ccccc5)N4C(=O)C(NC(=O)C(C)NC)C3)c2)CCC2CCC(C(=O)NC(c3ccccc3)c3ccccc3)N2C1=O")
63.9
>>> data_value("O=C(c1ccc(F)c(F)c1Nc1ccc(I)cc1F)N1CC(O)([C@@H]2CCCCN2)C1 + Cc1c(S(C)(=O)=O)c(-c2cc(F)cc(N3CCN(c4ccc(NS(=O)(=O)c5ccc(NC(CCN6CCC(C(=O)OCCCP(=O)(O)O)CC6)CSc6ccccc6)c(S(=O)(=O)C(F)(F)F)c5)cc4)CC3)c2)c(-c2ccc(Cl)cc2)n1C(C)C")
45.1
